Experiment: Quantitative highthroughput screen to assess conditional lethalithy of P12 Ichikawa cells grown in RPMI1640 with dialyzed fetal bovine serum (RPMI+ds) (AID 1963880); also: nearly all actives have a fitted effect of over 35% in size;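 as to viability: 100% = DMSO wells and 0% = empty wells on each plate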
Conditions: ATP luminescence, 48 h; P12-Ichikawa viability; series mostly up to 45.8 µM
Results filed as inconclusive are left out. Activity calls are given as the source filed them. Calls follow the shape of the dose curve; as a rule, active = well fitted cell-killing curve with a large enough effect; inconclusive = small, poorly fitted or top-dose-only effect; inactive = flat fitted curve, though single readings scatter.
Respond with a class label; see 1.0 for active, 0.0 for inactive

Worked set:
C=C(C)[C@@H]1CC[C@]2(C)CC[C@]3(C)[C@H](CC[C@@H]4[C@@]5(C)CC[C@H](O)C(C)(C)[C@H]5CC[C@]43C)[C@@H]12; 0.0
CC(=O)SC[C@@H](C)C(=O)N1CCC[C@H]1C(=O)N[C@@H](Cc1ccccc1)C(=O)O; 0.0

Could you check what this test reported for NC(=O)c1cnccn1 ?
0.0

Could you check what this test reported for COc1ncnc(NS(=O)(=O)c2ccc(N)cc2)c1OC ?
1.0

Could you check what this test reported for NS(=O)(=O)c1cc(Cl)c(Cl)c(S(N)(=O)=O)c1 ?
0.0

Could you check what this test reported for CNC(=O)c1ccc2cc(C3(O)CCn4cncc43)ccc2c1 (stereo not given) ?
0.0

Could you check what this test reported for COc1ccc(-n2nc(C(N)=O)c3c2C(=O)N(c2ccc(N4CCCCC4=O)cc2)CC3)cc1 ?
1.0

Could you check what this test reported for O=C(C1CC1)N1CC[C@@H](Cc2n[nH]c(=O)n2-c2ccc(-c3ccc4occc4c3)cc2)C1 ?
0.0

Could you check what this test reported for Cc1cnc(CNC(=O)c2c(=O)c3ccc(N4CCCN(C)CC4)nc3n3c2sc2ccccc23)cn1 ?
1.0

Could you check what this test reported for CN(C)c1ccc2nc3ccc(=[N+](C)C)cc-3sc2c1 ?
1.0

====

Molecular target: Cytochrome P450 3A7 (Homo sapiens)
Assay: Cytochrome P450 family 3 subfamily A member 7 (CYP3A7) small molecule antagonists: luciferase biochemical qHTS assay (AID 1963596); also: nearly all actives have a fitted effect of over 40% in size
Conditions: P450-Glo CYP3A7 enzyme luminescence, 1 h; series mostly up to 57.4 µM
Text: National Center for Advancing Translational Sciences [NCATS] Assay Overview: Cytochrome P450 (CYP) enzymes are membrane-bound hemeproteins that play a key role in metabolism of drugs and xenobiotics. […] The luciferin products formed are detected with a luciferin detection reagent, and the amount of light produced is proportional to CYP activity. […]
Records with an inconclusive call do not appear. Activity calls are given as the source filed them. Calls come from the whole dose curve; as a rule, active = well fitted inhibition curve with a large enough effect; inconclusive = small, poorly fitted or top-dose-only effect; inactive = no such curve, though single readings can be large or run the other way.
Respond with a class label; see TRUE for active, FALSE for inactive

Worked set:
COc1cc2c(NC3CCN(CC4CCCCC4)CC3)nc(N3CCCN(C(C)C)CC3)nc2cc1OCCCN1CCCCC1; FALSE
O=C(C1CC1)N1CC[C@@H](Cc2n[nH]c(=O)n2-c2ccc(-c3ccc4occc4c3)cc2)C1; TRUE
COc1ccc2c(c1)CCCC2=O; FALSE

Could you check what this test reported for CC1(C)[C@H]2C[C@H](C/C=C\CCCC(=O)O)[C@@H](NC(=O)c3csc4ccc(O)cc34)[C@@H]1C2 ?
FALSE

Could you check what this test reported for CN1C(=O)c2ccccc2C1=O ?
FALSE

Could you check what this test reported for CC(=O)OCC(COC(C)=O)OC(C)=O ?
FALSE

Could you check what this test reported for C[N+](C)(C)CCOC(=O)CCC(=O)OCC[N+](C)(C)C ?
FALSE

Could you check what this test reported for N=c1nc(N2CCCCC2)cc(N)n1O ?
FALSE

Could you check what this test reported for COc1ccccc1N1CCN(CC(O)COc2cc(OC)c(OC)c(OC)c2)CC1 (stereo unspecified) ?
FALSE

Could you check what this test reported for Oc1ccc(Cl)c2cccnc12 ?
FALSE

Could you check what this test reported for CN(C)c1nc(NC2CCC(NC(=O)c3ccc(F)c(F)c3)CC2)nc2ccccc12 (stereo unspecified) ?
FALSE
